target: PICK1 WT (protein interacting with C-kinase 1), rat (rat, UniProt Q9EP80 1-416); assay: fluorescence polarisation
Sequence (Q9EP80 whole entry): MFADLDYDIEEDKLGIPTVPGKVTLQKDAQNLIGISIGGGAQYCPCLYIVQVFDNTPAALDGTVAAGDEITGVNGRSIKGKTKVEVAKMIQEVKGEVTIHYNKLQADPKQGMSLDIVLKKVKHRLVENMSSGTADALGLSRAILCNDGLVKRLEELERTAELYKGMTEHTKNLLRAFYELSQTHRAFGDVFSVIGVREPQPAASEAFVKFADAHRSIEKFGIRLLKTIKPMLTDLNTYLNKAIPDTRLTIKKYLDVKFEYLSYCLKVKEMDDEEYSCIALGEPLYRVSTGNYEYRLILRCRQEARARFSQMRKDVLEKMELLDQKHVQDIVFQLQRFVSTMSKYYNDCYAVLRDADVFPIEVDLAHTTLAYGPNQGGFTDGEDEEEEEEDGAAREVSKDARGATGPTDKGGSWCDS
property_label: Ki (µM)

[P] EGYNVYGIESVKI [GluA2 C13 (13 C-terminal residues of human GluA2)]
[Q] NPQFVHPILQSAV [PKCα C13 (13 C-terminal residues of human protein kinase Cα)]
[R] EVRQFTLRHWLKV [DAT C13 (13 C-terminal residues of the human dopamine transporter)]
Exercise: Arrange the items listed above so that Ki rises from first to last. I would appreciate it if you listed the labels in the requested order.
Solution: R, P, Q
(R: 1.05 µM, P: 7.6 µM, Q: 49 µM)
